List of IC50 tested on Melanin-concentrating hormone receptor 1 (Homo sapiens, UniProt Q99705).
Sequence (Q99705 whole entry): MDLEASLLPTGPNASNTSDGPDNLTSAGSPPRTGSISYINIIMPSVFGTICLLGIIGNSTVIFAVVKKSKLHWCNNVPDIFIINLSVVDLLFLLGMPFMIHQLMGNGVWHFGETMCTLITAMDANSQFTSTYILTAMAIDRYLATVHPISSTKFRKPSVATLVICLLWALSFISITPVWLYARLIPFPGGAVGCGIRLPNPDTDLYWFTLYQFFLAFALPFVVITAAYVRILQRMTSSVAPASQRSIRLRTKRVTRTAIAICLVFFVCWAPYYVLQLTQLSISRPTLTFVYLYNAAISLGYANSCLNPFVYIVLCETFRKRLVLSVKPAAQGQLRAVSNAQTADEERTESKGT
Measurement Type: IC50 (nM)

# Molecule, Data Value
data = [
    ("CCCc1cc(N)c2cc(NC(=O)/C=C/c3ccc(O)cc3)ccc2n1", 1100),
]

P = CCCc1cc(N(C)C)c2cc(NC(=O)/C=C/c3ccc(C(F)(F)F)cc3)ccc2n1
Q = CCCc1cc(NC2CCC2)c2cc(NC(=O)/C=C/c3ccc(C(F)(F)F)cc3)ccc2n1
R = CCCc1cc(N)c2cc(NC(=O)/C=C/c3ccc(C(F)(F)F)cc3)ccc2n1 (stereo in doubt; form 3)
Descending sort on IC50 required. Please, when replying, give the labels in the order that was requested. P, Q, R
(P: 43 nM, Q: 18 nM, R: 1.3 nM)
